system: SNB-19 CNS; assay: NCI tumour cell line growth inhibition, 48 h; in the data active means GI50 below about 0.43 µM; inactive means the rest
# valid calls are true (1) (active), false (0) (inactive); nothing else

Please share the test call associated with "Cc1cncc2cccc(S(=O)(=O)N3CCCNC[C@@H]3C)c12" .
false (0)

What did the test return for "C[C@@H]1CC[C@H]2C(CN(C)CC3=C(C(F)(F)F)O[C@@H]4O[C@@]5(C)CC[C@H]6[C@H](C)CC[C@@H]3[C@@]46OO5)=C(C(F)(F)F)O[C@@H]3O[C@@]4(C)CC[C@@H]1[C@]32OO4" ?
false (0)

Look up the recorded call for "c1ccc2c(Nc3ccc4c(c3)OCO4)c3ccoc3nc2c1" in this test.
false (0)

Hey, what did the test say about S=C1NC2=C(CCOc3c2ccc2ccccc32)C(c2ccc(Cl)cc2)N1 (stereo unspecified) ?
false (0)

Hi, sorry to bother you, what did the test record for "Cc1cccc(Cc2cnc(NC(=O)/C=C/c3ccco3)s2)c1" ?
true (1)

Per the records of this test, what outcome belongs to "Fc1ccc(-c2ncn(C3CCNCC3)c2-c2ccnc(Oc3ccc(Oc4ccccc4)cc3)n2)cc1" ?
false (0)

====

test system: CAKI-1 renal; experiment: NCI tumour cell line growth inhibition, 48 h
So I've got a bunch of compounds here, and I need their TGI values.

compound "CC1(C)CC(=O)C=C(NC(=O)c2ccccc2)C1" , TGI observed: > 100 µM

Entry under test: "C=CCN1C(=O)C/C(=C2/CCC(=O)N2CC=C)C1=O" . Its TGI was > 100 µM

Please fill in: TGI reported for "O=C1/C(=C/Cc2ccco2)N=C(c2ccccc2)N1c1nc2c(Cl)cc(Cl)cc2s1" = > 100 µM

What the record says about "CC(C)(CO)Nc1c(O)c2c(c(O)c1Cl)C(=O)C=CC2=O" : TGI is 3.41 µM

Lab note: "Cc1cc(=O)oc2c(CN(CCCl)CCCl)c(O)ccc12" gave TGI of > 100 µM

Entry "O=C1c2ccccc2-c2c1c1ccccc1c(=O)n2CCCNCCO" ; TGI = 3.34 µM

Recorded result, CC1CC/C(=C\c2ccc(F)cc2)C2=C1C(c1ccc(F)cc1)NC(=S)N2 (stereo unspecified) , TGI: > 100 µM

Per the record, "c1ccc2c(Nc3ccc4c(c3)OCO4)c3ccoc3nc2c1" has TGI of 33.3 µM

In plain terms, "C[C@@H]1CC[C@H]2C(CN(C)CC3=C(C(F)(F)F)O[C@@H]4O[C@@]5(C)CC[C@H]6[C@H](C)CC[C@@H]3[C@@]46OO5)=C(C(F)(F)F)O[C@@H]3O[C@@]4(C)CC[C@@H]1[C@]32OO4" has a documented TGI of 18.2 µM

NC(=S)c1cn(C2OC(CO)C(O)C2O)c2ncnc(N)c12 (stereo unspecified) has a reported TGI of 2.22 µM

Memo: "COc1ccc(Nc2ccnc3cc(Cl)ccc23)cc1CN(CCCl)CCCl" , reported TGI: 0.933 µM

TGI for "Cc1cncc2cccc(S(=O)(=O)N3CCCNC[C@@H]3C)c12" is > 100 µM

The compound identified as CCCCOc1nc2ccccc2cc1C1CNC(=O)c2ccccc2N1 (stereo unspecified) registered its TGI at 23.6 µM

Per the records, this compound ( O=C1CSC(c2cc3cc(Br)ccc3nc2Cl)N1c1ccc(F)c(Cl)c1 (stereo unspecified) ) has TGI equal to > 50 µM

Looking up "NS(=O)(=O)c1ccc(N=Nc2cc3ccccc3c(C(=O)O)c2O)cc1" , I found its TGI recorded as > 100 µM

// TGI lookup, compound = "Cc1nc2ccccc2nc1N1CCCC1" , result: > 100 µM

Reported TGI ( "CC(C)S(=O)(=O)ON1C(=O)c2ccc([N+](=O)[O-])cc2C1=O" ) = > 100 µM

Data point: "C/C(=C\COc1ccc2ccc(=O)oc2c1)CCC(=O)C(C)(C)O" ; TGI = > 100 µM

The compound listed as "Cn1c(-c2cccs2)cc(-c2ccsc2)c1-c1ccsc1" has a reported TGI of > 100 µM

Sample "CCN1CCN(c2nc(NNC(=O)c3cccc(OC)c3)nc(N3CCN(C(c4ccccc4)c4ccccc4)CC3)n2)CC1" ; TGI observed: 3.1 µM

Input "C(=N\Nc1nnc(-c2nnc(N/N=C/c3ccccc3)o2)o1)/c1ccccc1" . Output TGI: > 10 µM

====

system: CCRF-CEM leukemia; test: NCI tumour cell line growth inhibition, 48 h
attribute_measured: log10 of TGI (log10 of the value in µM)
// units: µM (pre-log); metric: TGI; scale: log10

The recorded log10 of TGI for "CC(=O)O[C@H]1Cc2c([nH]c3ccccc23)[C@@H](c2ccc(Cl)cc2)N1C(=O)CCNC(C)(C)C" is 1.17

Record "O=C(N/N=C\c1cc(Br)cc(Br)c1O)N/N=C/c1cc(Br)cc(Br)c1O" , field log10 of TGI: 0.65

The molecule identified as "Nc1cc2ccncc2c2ccccc12" registered its log10 of TGI at 2.00

// sample CC(=O)OC1CC2C(C)(C)C(=O)C=C[C@]2(C)C2CCC3(C)C(=CCC3[C@H](CO)C[C@H](O)C(=O)C(C)(C)O)[C@]12C (stereo not given in full) , its log10 of TGI was 1.82

The value of log10 of TGI measured for the molecule "c1ccc(-c2nn(-c3ccccc3)[n+](-c3ccccc3-c3ccccc3)n2)cc1" turned out to be 1.64

# log10 of TGI of NC(=S)c1cn(C2OC(CO)C(O)C2O)c2ncnc(N)c12 (stereo not given) = -0.29

The recorded log10 of TGI for entry C[C@@H]1CC(=O)[C@@]2(C)[C@](O)(CCC3O[C@]32C)[C@@]12CC(c1ccoc1)OC2=O (stereo not given in full) equals 1.78

log10 of TGI recorded for this molecule, "O=C1c2ccccc2-c2c1c1ccccc1c(=O)n2CCCNCCO" , is 0.05

Field log10 of TGI (entry "O=C(O)CNCc1c2ccccc2nc2ccccc12" ) reads 1.61

"CCN(Cc1cccc(C)c1)c1ccc(CO)c(Cl)c1" yielded log10 of TGI of 1.60

The molecule listed as CC(C)C(NCc1c2ccccc2nc2ccccc12)C(=O)O (stereo not given) has a reported log10 of TGI of 1.95

// log10 of TGI lookup, molecule = "COc1cc2cc(C(=O)N3C[C@H](CCl)c4c3cc(O)c3ccccc43)[nH]c2c(OC)c1OC" , result: -1.32

The molecule listed as "c1cc[c]([Sn]([O]c2cccc3cccnc23)([c]2ccccc2)[c]2ccccc2)cc1" shows log10 of TGI equal to -0.96

Just so you know, measured log10 of TGI for "C=C1C(=O)O[C@H]2[C@H]1CC/C(COC(=O)c1ccc(Br)cc1)=C\CC[C@@]1(C)O[C@@H]21" came out at 0.89

Given item "CC(C)(CO)Nc1c(O)c2c(c(O)c1Cl)C(=O)C=CC2=O" , the value recorded as its log10 of TGI is 0.10

Sample "Cc1cccc(-c2cc(=O)c3cc(C)cnc3[nH]2)c1" ; log10 of TGI observed: 1.57

====

system: DU-145 prostate; experiment: NCI tumour cell line growth inhibition, 48 h
attribute_measured: TGI

// sample "CC(C)(C)C1=CC(O)(c2c3ccccc3c(C3(O)C=C(C(C)(C)C)C(=O)C(C(C)(C)C)=C3)c3ccccc23)C=C(C(C)(C)C)C1=O" , its TGI was > 100 µM

Just so you know, measured TGI for "COc1cc(OC)cc(-c2nc3ccccc3c(=O)[nH]2)c1" came out at > 100 µM

Sure, the documented TGI for "C/C(=C\COc1ccc2ccc(=O)oc2c1)CCC(=O)C(C)(C)O" is > 100 µM

Given item "Nc1ccc(Sc2ccc3c4c2cccc4c(=O)n2c4ccccc4nc32)cc1" , the value recorded as its TGI is 14.1 µM

// sample "C[S+](C)C1(c2ccccc2)C(=O)c2ccccc2C1=O" , its TGI was > 100 µM

So for CCCCOc1nc2ccccc2cc1C1CNC(=O)c2ccccc2N1 (stereo unspecified) , the logged TGI turned out to be 12 µM

GET /value?item= "CCOC(=O)CCN1C(=O)c2c(NC(=O)C(=O)O)cccc2S1(=O)=O" &field=TGI returns > 100 µM

What the record says about "Cc1cc(=O)oc2c(CN(CCCl)CCCl)c(O)ccc12" : TGI is > 100 µM

Sample O=C(O)CCC(NC(=O)/C(=C/c1ccccc1)NC(=O)c1ccccc1)C(=O)O (stereo unspecified) ; TGI observed: > 100 µM

Documented TGI of "C=C1C(=O)O[C@H]2[C@H]1CC/C(COC(=O)c1ccc(Br)cc1)=C\CC[C@@]1(C)O[C@@H]21" : 2.65 µM

Briefly, TGI measured for "[O-][n+]1cc(SCc2ccccc2)ncc1SCc1ccccc1" : > 10 µM
